- measurement-target: Calmodulin-1 (Homo sapiens)
- assay-comment: small molecules binding calmodulin-1 with EGTA – biochemical, small-molecule microarray, Cy5-labelled CALM1, profiling panel (AID 1111);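 further: labelled calmodulin applied in Tris saline Tween buffer holding calcium plus EGTA and DTT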
- conditions: Cy5-CALM1 binding fluorescence, higher = more signal
property-label: composite z-score

compound	endpoint-result
O=C1c2ccccc2[C@@]2(Cc3ccccc3N(Cc3ccccc3)C2=O)[C@H](c2ccc(CO)cc2)N1Cc1ccccc1C(F)(F)F	-0.457
O=C1OCC=C[C@H]2OC34C=CCN(c5ccc6ccccc6c5)C(=O)[C@H]3N(CCO)C(=O)[C@@H]4[C@@H]12 (some centres undefined)	-0.245
CCCNC(=O)[C@@]1(C)c2ccccc2C(=O)N(C(C)C)[C@H]1c1ccc(CO)cc1	-0.58
CN(C)CCCCCCNC(=O)[C@@H]1C[C@@H]2C(=O)NCC(=O)N2[C@@H]1c1cccc(OCCO)c1	0.138

----------
- assay-comment: growth modulation of vineyard yeast isolate – strain RM11-1a, OD600, basal, 24 h, primary screen (AID 1177);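 further: cultures grown under basal conditions with no added stressor; test concentration not given here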
- conditions: S. cerevisiae RM11-1a growth, OD600, 24 h; higher = more signal, called active from +8 up or from −8 down
Classification scheme (z-score): lo = under 0.4, med = from 0.4 up to 2, hi = 2 and over

molecule	class
CC(C)C(CO)N1C(=O)[C@@H]2[C@H]3C(=O)OCC=C[C@H]3OC23C=CCN(c2ccc4ccccc4c2)C(=O)[C@@H]13 (stereo not given in full)	med
CC(C)N1C(=O)c2ccccc2[C@](C)(C(=O)NC2CC2)[C@@H]1c1ccc(CO)cc1	lo
[N-]=[N+]=NCc1ccccc1C[C@]1(C(=O)NCc2ccccc2)COC(c2ccc(OCCCO)cc2)=N1	hi
O=C1C[C@@](C(=O)O)(c2ccc([N+](=O)[O-])cc2)[C@@H](c2ccc(CO)cc2I)N1CC12CC3CC(CC(C3)C1)C2	lo
COc1ccc([Si](C)(C)[C@H]2[C@H](CC(=O)N3Cc4ccccc4C[C@H]3CO)O[C@@]3(C(=O)N(Cc4cccc(I)c4)c4ccccc43)[C@@H]2C)cc1	med
O=c1cccc(-c2ccccc2)o1	med
COC(=O)[C@@]1(Cc2ccc(OC)cc2)[C@H]2c3cc(C(=O)N4CCCC4)n(CCN4CCOCC4)c3C[C@H]2CN1C(=O)c1ccccc1	med
C=C(CCCC)C(=O)CC[C@H](OC(=O)c1ccccc1-c1ccccc1C(=O)O)c1ccc(CO)o1	med
COC(=O)c1nc2oc1CC[C@@H](CO)NC(=O)N(C)Cc1cn(nn1)C[C@H](Cc1ccccc1)NC2=O	lo
CCCCN1CC=CC23O[C@@H]4C=CCCOC(=O)C4[C@H]2C(=O)N(CCCO)[C@@H]3C1=O (stereo not given in full)	lo
O=C1O[C@@H](c2ccccc2)[C@@H](c2ccccc2)N2[C@@H](c3ccccc3OCCO)[C@]3(C(=O)Nc4ccc(C#CC5(O)CCCCCC5)cc43)[C@@H](C(=O)NC[C@H](O)c3ccccc3)[C@H]12	hi
C=CCN1C(=O)[C@@]2(O[C@@H](CCO)[C@H]([Si](C)(C)c3ccc(OC)cc3)[C@H]2C)c2cc(N3C(=O)COc4ccccc43)ccc21	hi
NC(=O)[C@@]1(CCS(=O)(=O)c2ccccc2)N=C(c2ccc(OCCCO)cc2)O[C@H]1c1ccccc1	lo
CC1(C)C(=O)C(c2ccccc2)=C2CN3C(=O)N(CCc4ccccc4)C(=O)C3(Cc3ccccc3)C=C21 (stereo not given)	hi
